These compounds were tested on DGKα (Homo sapiens (Human), UniProt P23743); IC50 is the recorded read-out.
Sequence (P23743 whole entry): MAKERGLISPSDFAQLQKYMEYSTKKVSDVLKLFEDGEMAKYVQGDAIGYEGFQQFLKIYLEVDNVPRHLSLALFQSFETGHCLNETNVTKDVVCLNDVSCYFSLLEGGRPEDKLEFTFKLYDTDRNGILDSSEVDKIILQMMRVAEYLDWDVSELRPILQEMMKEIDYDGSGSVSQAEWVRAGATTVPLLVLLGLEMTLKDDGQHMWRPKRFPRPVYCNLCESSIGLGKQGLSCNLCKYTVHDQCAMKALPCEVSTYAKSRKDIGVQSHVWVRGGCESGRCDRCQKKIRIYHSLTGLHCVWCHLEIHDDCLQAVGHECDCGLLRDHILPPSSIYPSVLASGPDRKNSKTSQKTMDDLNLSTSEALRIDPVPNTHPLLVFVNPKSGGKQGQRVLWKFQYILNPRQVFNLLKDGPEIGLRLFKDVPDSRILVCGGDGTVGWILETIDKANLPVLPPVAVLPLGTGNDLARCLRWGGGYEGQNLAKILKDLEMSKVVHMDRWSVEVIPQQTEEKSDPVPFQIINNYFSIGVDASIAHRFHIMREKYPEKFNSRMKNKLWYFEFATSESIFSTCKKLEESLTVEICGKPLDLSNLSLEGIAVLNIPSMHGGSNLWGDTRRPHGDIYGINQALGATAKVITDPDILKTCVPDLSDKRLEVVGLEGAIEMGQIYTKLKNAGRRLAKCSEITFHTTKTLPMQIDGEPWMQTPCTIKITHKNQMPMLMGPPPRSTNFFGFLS
experimental-endpoint: IC50 (µM)

compound: CC(c1ccc2ncc(C3CC3)nc2c1)N1C[C@H](C)N(c2cc(=O)n(C)c3cn(CC#N)nc23)C[C@H]1C (stereo partly shown) [Compound A310]
target-under-test: DGKα (Homo sapiens (Human), UniProt P23743)
experimental-endpoint: IC50
unit-symbol: µM
measured-number: 94.7

(a) C[C@@H]1CN(c2cc(=O)n(C)c3cn(CC#N)nc23)[C@@H](C)CN1Cc1ccc2nccnc2c1 [Compound A44]
(b) CC[C@H]1CN(C(C(=O)NCCOC)c2ccc(C(F)(F)F)cc2)[C@H](CC)CN1c1cc(=O)n(C)c2cn(CC#N)nc12 (stereo partly shown) [Compound A296]
q: Which record shows the lower IC50: the first, a , or the second, b ? Answer by quoting the chosen item's label.
a: b

---

Target: DGKζ (Homo sapiens (Human))
Assay: Biochemical DGK IC50 assay, DGKζ ADP-Glo assay
Details: 0.5 nM enzyme, 140 μM ATP, 80 μM DAG; read-out: DGKζ ADP-Glo assay IC50
experimental-endpoint: IC50

compound: Cc1cnc2ccc([C@@H](C)N3C[C@H](C)N(c4cc(=O)n(C)c5cn(CC#N)nc45)C[C@H]3C)cc2n1 [Compound A269c]
IC50: > 10 µM

Lab note: CC[C@@H]1CN(c2cc(=O)n(C)c3cn(CC#N)nc23)[C@@H](CC)CN1C(=O)c1ccc(C)cn1 gave IC50 of > 10 µM

Lab note: CC[C@H]1CN(C(C)c2nc3cccnc3n2CC)[C@H](CC)CN1c1cc(=O)n(C)c2cn(CC#N)nc12 (single isomer, unassigned) [Compound A185a] gave IC50 of > 10 µM

Lab note: C[C@@H]1CN(c2cc(=O)n(C)c3cn(CC#N)nc23)[C@@H](C)CN1[C@@H](C)c1ccc2nccnc2c1 gave IC50 of 0.052 µM

---

Biological target: DGKζ (Homo sapiens (Human), UniProt Q13574)
Sequence (Q13574 other isoform, or with tags, fused parts or gaps): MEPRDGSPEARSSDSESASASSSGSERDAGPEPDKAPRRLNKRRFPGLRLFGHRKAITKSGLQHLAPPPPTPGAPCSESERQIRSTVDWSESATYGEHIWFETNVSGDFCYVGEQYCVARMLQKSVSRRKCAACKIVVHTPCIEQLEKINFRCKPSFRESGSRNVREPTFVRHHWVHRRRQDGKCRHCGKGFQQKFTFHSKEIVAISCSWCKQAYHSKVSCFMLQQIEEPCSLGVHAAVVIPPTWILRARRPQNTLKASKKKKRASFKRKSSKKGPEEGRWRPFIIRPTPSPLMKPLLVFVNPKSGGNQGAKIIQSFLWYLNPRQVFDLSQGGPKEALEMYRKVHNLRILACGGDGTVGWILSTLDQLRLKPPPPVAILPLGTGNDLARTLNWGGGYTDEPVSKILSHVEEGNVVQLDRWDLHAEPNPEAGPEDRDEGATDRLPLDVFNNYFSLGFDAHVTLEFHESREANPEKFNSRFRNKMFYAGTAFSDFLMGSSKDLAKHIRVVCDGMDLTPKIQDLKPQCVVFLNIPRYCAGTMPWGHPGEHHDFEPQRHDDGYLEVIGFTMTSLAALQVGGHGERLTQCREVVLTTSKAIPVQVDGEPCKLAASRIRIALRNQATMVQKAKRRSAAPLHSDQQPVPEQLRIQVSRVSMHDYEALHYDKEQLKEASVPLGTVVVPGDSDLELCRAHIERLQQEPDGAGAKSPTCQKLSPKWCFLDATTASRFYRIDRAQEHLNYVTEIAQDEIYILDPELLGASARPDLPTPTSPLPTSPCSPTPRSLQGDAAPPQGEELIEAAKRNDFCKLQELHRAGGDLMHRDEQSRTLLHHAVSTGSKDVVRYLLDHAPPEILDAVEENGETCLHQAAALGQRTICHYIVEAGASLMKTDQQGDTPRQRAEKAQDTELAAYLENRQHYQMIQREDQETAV
Experiment: Biochemical DGK IC50 assay, DGKζ ADP-Glo assay
Conditions: 0.5 nM enzyme, 140 μM ATP, 80 μM DAG; read-out: DGKζ ADP-Glo assay IC50
Method: Enzymatic reactions of DGKζ, DGKα and DGKδ were performed using ADP-Glo assay with lipid micelle substrate. […] Full length DGKα (D21-10BG, SignalChem) and full length DGKδ (D23-10G, SignalChem) were purchased. Lipid micelle was prepared by dissolving DAG (Sigma, 317505-10MG) and PS (Sigma, P7769-100MG) with chloroform which was furtherly removed by rotary evaporation. […]
pIC50: −log10 of the molar value.
experimental-endpoint: pIC50

Sample records with pIC50:
molecule: CC#CCn1cc2c(n1)c(N1C[C@@H](CC)N(C(C)c3ccc4c(c3)OC(F)(F)O4)C[C@@H]1C)cc(=O)n2C (single isomer, unassigned) [Compound A392b]
target-under-test: DGKζ (Homo sapiens (Human), UniProt Q13574)
experimental-endpoint: pIC50
result: < 5.00
--
molecule: CC(c1ccc2nccnc2c1)N1C[C@H](C)N(c2cc(=O)n(C)c3cn(CCN(C)C)nc23)C[C@H]1C (stereo partly drawn)
target-under-test: DGKζ (Homo sapiens (Human), UniProt Q13574)
experimental-endpoint: pIC50
result: < 3.82

Lab note: CC[C@H]1CN(C(C)c2cn(CC)c(C)n2)[C@H](CC)CN1c1cc(=O)n(C)c2cn(CC#N)nc12 (stereo partly drawn) gave pIC50 of < 5.00

---

These molecules were tested on DGKα (Homo sapiens (Human)); IC50 is the recorded read-out.

molecule: CC[C@@H]1CN(c2cc(=O)n(C)c3cn(CC)nc23)[C@@H](C)CN1C(C)c1ccc2nccnc2c1 (single isomer, unassigned) [Compound A221a]
IC50: 1.09 µM

Lab note: CC(c1ccc(F)cc1C1(O)COC1)N1C[C@H](C)N(c2cc(=O)n(C)c3cn(CC#N)nc23)C[C@H]1C (some centres unmarked) gave IC50 of > 10 µM

Lab note: CC[C@@H]1CN(c2cc(=O)[nH]c3c(C)n(CC#N)nc23)[C@@H](C)CN1C(C)c1ccc2nccnc2c1 (some centres unmarked) gave IC50 of > 10 µM

Lab note: CC[C@H]1CN(C(C)c2nc3ccccc3n2C(C)C)[C@H](CC)CN1c1cc(=O)n(C)c2cn(CC#N)nc12 (some centres unmarked) gave IC50 of > 10 µM

Lab note: CC(c1ccc(F)cc1CC#N)N1C[C@H](C)N(c2cc(=O)n(C)c3cn(CC#N)nc23)C[C@H]1C (single isomer, unassigned) [Compound A287a] gave IC50 of > 10 µM

Lab note: CC[C@H]1CN(C(C)c2ccncc2C(F)(F)F)[C@H](CC)CN1c1cc(=O)n(C)c2cn(CC#N)nc12 (some centres unmarked) gave IC50 of > 150 µM

Lab note: CC[C@H]1CN(C(C)c2ccc(F)cc2C(C)OC)[C@H](CC)CN1c1cc(=O)n(C)c2cn(CC#N)nc12 (some centres unmarked) gave IC50 of > 150 µM

Lab note: CC[C@H]1CN(C(C)c2cnc(C(F)(F)F)n2CC)[C@H](CC)CN1c1cc(=O)n(C)c2cn(CC#N)nc12 (some centres unmarked) gave IC50 of > 10 µM

---

Molecular target: DGKζ (Homo sapiens (Human), UniProt Q13574)
Test: Biochemical DGK IC50 assay, DGKζ ADP-Glo assay
Conditions: 0.5 nM enzyme, 140 μM ATP, 80 μM DAG; read-out: DGKζ ADP-Glo assay IC50
pIC50: −log10 of the molar value.
experimental-endpoint: pIC50

compound: CCCn1c(C(C)N2C[C@H](CC)N(c3cc(=O)n(C)c4cn(CC#N)nc34)C[C@H]2CC)nc2ccccc21 (some centres unmarked)
pIC50: 7.23

(P) CC[C@H]1CN(C(C)c2ccc3nccnc3c2)[C@H](CC)CN1c1cc(=O)n(CC(F)F)c2cn(CC#N)nc12 (single isomer, unassigned) [Compound A139b]
(Q) CC[C@H]1CN(C(C)c2ccc(C(F)(F)F)cc2F)[C@H](CC)CN1c1cc(=O)n(C)c2cn(CC#N)nc12 (single isomer, unassigned) [Compound A69a]
(R) CC[C@H]1CN(C(C)c2ccccc2COC)[C@H](CC)CN1c1cc(=O)n(C)c2cn(CC#N)nc12 (some centres unmarked)
(S) CC[C@H]1CN(C(C)c2ccc(F)cc2C#N)[C@H](CC)CN1c1cc(=O)n(C)c2cn(CC#N)nc12 (single isomer, unassigned) [Compound A224a]
(T) CC[C@H]1CN(C(C)c2nc3ccc(C(F)(F)F)cc3n2CC)[C@H](CC)CN1c1cc(=O)n(C)c2cn(CC#N)nc12 (single isomer, unassigned) [Compound A204a]
q: List from greatest to least pIC50. In your reply, arrange the labels in the requested order.
a: Q, S, R, T, P

(A) CC[C@H]1CN(C(C)c2cccc3c2OC(F)(F)O3)[C@H](CC)CN1c1cc(=O)n(C)c2cn(CC#N)nc12 (some centres unmarked)
(B) CC[C@@H]1CN(c2cc(=O)n(C)c3cn(CC#N)nc23)[C@@H](C)CN1C(C)c1ccc(C(F)(F)F)cc1F (single isomer, unassigned) [Compound A202a]
(C) COCc1ccc(C(C)N2C[C@H](C)N(c3cc(=O)n(C)c4cn(CC#N)nc34)C[C@H]2C)cc1 (some centres unmarked)
q: Sort the compounds on pIC50; start with the lowest figure. In your reply, arrange the labels in the requested order.
a: C, A, B
(C: 5.09, A: 6.39, B: 6.75)

---

pIC50: −log10 of the molar value.
These molecules were tested on DGKα (Homo sapiens (Human)); pIC50 is the recorded read-out.

Sample records with pIC50:
molecule: CC[C@H]1CN(C(C)c2ccc(F)c(F)c2C(F)(F)F)[C@H](CC)CN1c1cc(=O)n(C)c2cn(CC#N)nc12 (stereo partly drawn) [Compound A288]
pIC50: 5.47
--
molecule: CC[C@@H]1CN(c2c(Cl)c(=O)n(C)c3cn(CC#N)nc23)CCN1C(C)c1ccc2nccnc2c1 (single isomer, unassigned) [Compound A162b]
pIC50: < 5.00
--
molecule: COC(C)c1cc(F)ccc1C(C)N1C[C@H](C)N(c2cc(=O)n(C)c3cn(CC#N)nc23)C[C@H]1C (single isomer, unassigned) [Compound A286a]
pIC50: < 5.00
--
molecule: CC[C@H]1CN(C(C)c2ccc(F)cc2C(F)(F)F)[C@H](CC)CN1c1cc(=O)n(C)c2c[nH]nc12 (single isomer, unassigned) [Compound A275b]
pIC50: < 5.00

DGKα (Homo sapiens (Human)) data for CC[C@H]1CN(C(C)c2nc3ccccc3n2CCO)[C@H](CC)CN1c1cc(=O)n(C)c2cn(CC#N)nc12 (stereo partly drawn) [Compound A214] ; its pIC50: < 5.00

DGKα (Homo sapiens (Human)) data for COc1cc(F)ccc1C(C)N1C[C@H](C)N(c2cc(=O)n(C)c3cn(CC#N)nc23)C[C@H]1C (stereo partly drawn) [Compound A248] ; its pIC50: < 5.00
